TEST_PROTOCOL: in vivo
Design: species or system Balb/c mice
MEASUREMENT_CONDITIONS: Balb/c, mouse, iv, 1 h
Square brackets hold non-standard residues; d marks the D form. Peptide text beside a SMILES is read from it. * marks the point of attachment. DOTA = O=C(O)CN1CCN(CC(=O)O)CCN(CC(=O)*)CCN(CC(=O)O)CC1; Cha = N[C@@H](CC1CCCCC1)C(=O)O; 4Abz = Nc1ccc(C(=O)O)cc1; Nle = CCCC[C@H](N)C(=O)O
ATTRIBUTE_MEASURED: Uptake in Lungs (%ID/g)
// return numeric value only (unit: %ID/g, not printed)

For the molecule CCCC[C@H](NC(=O)[C@H](Cc1c[nH]cn1)NC(=O)[C@H](CC1CCCCC1)NC(=O)[C@@H](NC(=O)[C@H](C)NC(=O)[C@H](Cc1c[nH]c2ccccc12)NC(=O)[C@H](CCC(N)=O)NC(=O)[C@H](CS)NC(=O)CNC(=O)CNC(=O)c1ccc(NC(=O)CN2CCN(CC(=O)O)CCN(CC(=O)O)CCN(CC(=O)O)CC2)cc1)C(C)C)C(=O)N[C@@H](CCSC)C(N)=O [^68Ga-DOTA-Abz-BN Tris-, metal not drawn] ({DOTA-4Abz}-GGCQWAV[Cha]H[Nle]M-NH2) , give its measured Uptake in Lungs value. 0.58

Indicate the recorded Uptake in Lungs value for this molecule: CCCC[C@H](NC(=O)[C@H](Cc1c[nH]cn1)NC(=O)[C@H](CC1CCCCC1)NC(=O)[C@@H](NC(=O)[C@H](C)NC(=O)[C@H](Cc1c[nH]c2ccccc12)NC(=O)[C@H](CCC(N)=O)NC(=O)[C@H](CS)NC(=O)CNC(=O)CNC(=O)c1ccc(NC(=O)CN2CCN(CC(=O)O)CCN(CC(=O)O)CCN(CC(=O)O)CC2)cc1)C(C)C)C(=O)N[C@@H](CCSC)C(N)=O [^68Ga-DOTA-Abz-BN Cyclen, metal not drawn] ({DOTA-4Abz}-GGCQWAV[Cha]H[Nle]M-NH2) 0.21
